system: cryo-preserved hepatocytes; assay: Hepatocyte stability assay, human; assay type: in vitro ADME; conditions: human, hepatocytes

{"sample smiles": "CC/C=C(\\CC(=O)N[C@@H](C)c1ccc(C(F)(F)F)cc1)C(=O)O", "Clint": "<3 μL min^−1 10^−6 cells"}
{"sample smiles": "C=C(C(=O)O)C(C)(C)C(=O)N[C@@H](C)c1ccc(C(F)(F)F)cc1", "Clint": "<3 μL min^−1 10^−6 cells"}
{"sample smiles": "C/C=C(\\CC(=O)N[C@@H](C)c1ccc(C(F)(F)F)cc1)C(=O)O", "Clint": "<3 μL min^−1 10^−6 cells"}
{"sample smiles": "C=C(CC(=O)NC(C)(C)c1ccc(C(F)(F)F)cc1)C(=O)O", "Clint": "<3 μL min^−1 10^−6 cells"}
{"sample smiles": "C=C(CC(=O)N[C@@H](C)c1ccc(C(F)(F)F)cn1)C(=O)OCCO", "Clint": "11 μL min^−1 10^−6 cells"}

Hello, the source for this data is patent US20240245691A1, in case you need it.
